The origin of these recorded values is the supplement of paper PMC10307832.

Please go through the items and note down their relative viability.
test system: NCI-H3122; test: relative viability (nuclei count vs DMSO), 5 days (fraction); higher = more cells survive; conditions: first compound 0.06325 µM
Form: value (number only, do not type unit).

Query: Form field - read-out: relative viability; system: NCI-H3122; submitted item: CCNC(=O)c1noc(-c2cc(C(C)C)c(O)cc2O)c1-c1ccc(CN2CCOCC2)cc1 [Luminespib] + CS(=O)(=O)CCNCc1ccc(-c2ccc3ncnc(Nc4ccc(OCc5cccc(F)c5)c(Cl)c4)c3c2)o1 [Lapatinib] (partner 2 µM)
Response: 0.24

Query: API: value(readout= relative viability, system= NCI-H3122, query= CCNC(=O)c1noc(-c2cc(C(C)C)c(O)cc2O)c1-c1ccc(CN2CCOCC2)cc1 [Luminespib] + C[C@]1(O)C[C@@H](c2nc(-c3ccc4ccc(-c5ccccc5)nc4c3)c3c(N)nccn32)C1 [Linsitinib] (partner 1 µM) )
Response: 0.172

Query: GET /values?readout=relative viability&system=NCI-H3122&item= CCNC(=O)c1noc(-c2cc(C(C)C)c(O)cc2O)c1-c1ccc(CN2CCOCC2)cc1 [Luminespib] + COc1cccc2cc(-c3nc([C@H]4CC[C@H](C(=O)O)CC4)n4ncnc(N)c34)[nH]c12 [OSI-027] (partner 0.5 µM)
Response: 0.114

Query: State its relative viability on NCI-H3122: CCNC(=O)c1noc(-c2cc(C(C)C)c(O)cc2O)c1-c1ccc(CN2CCOCC2)cc1 [Luminespib] + COc1cc2c(Oc3ccc(NC(=O)C4(C(=O)Nc5ccc(F)cc5)CC4)cc3F)ccnc2cc1OCCCN1CCOCC1 [Foretinib] (partner 0.25 µM)
Response: 0.0893
